- Tested on: MKN-45
- Measurement notes: Compound was tested in vitro for cytotoxic activity against MKN-45 human stomach cancer cell line by MTT assay
- Assay type: functional, cell-based
Consider the following sequences; for each one, report its pIC50.
In simple prose, pIC50 is minus the logarithm base ten of a concentration in moles per litre.

Q: So what does the record say about pIC50 for `CARBOPLATIN` ?
A: 4.49

Q: So what does the record say about pIC50 for `CISPLATIN` ?
A: 5.43

----------
- Tested on: PC-14
- Measurement notes: Compound was tested in vitro for cytotoxic activity against PC-14 human non-small cell lung cancer cell line by MTT assay
- Type: functional, cell-based
Experimental endpoint: pIC50
In simple prose, pIC50 is minus the logarithm base ten of a concentration in moles per litre.

Q: So what does the record say about pIC50 for `CARBOPLATIN` ?
A: 5.01

Q: So what does the record say about pIC50 for `CISPLATIN` ?
A: 5.82
